Target: TR-β (Homo sapiens, UniProt P10828)
Sequence (P10828 whole entry): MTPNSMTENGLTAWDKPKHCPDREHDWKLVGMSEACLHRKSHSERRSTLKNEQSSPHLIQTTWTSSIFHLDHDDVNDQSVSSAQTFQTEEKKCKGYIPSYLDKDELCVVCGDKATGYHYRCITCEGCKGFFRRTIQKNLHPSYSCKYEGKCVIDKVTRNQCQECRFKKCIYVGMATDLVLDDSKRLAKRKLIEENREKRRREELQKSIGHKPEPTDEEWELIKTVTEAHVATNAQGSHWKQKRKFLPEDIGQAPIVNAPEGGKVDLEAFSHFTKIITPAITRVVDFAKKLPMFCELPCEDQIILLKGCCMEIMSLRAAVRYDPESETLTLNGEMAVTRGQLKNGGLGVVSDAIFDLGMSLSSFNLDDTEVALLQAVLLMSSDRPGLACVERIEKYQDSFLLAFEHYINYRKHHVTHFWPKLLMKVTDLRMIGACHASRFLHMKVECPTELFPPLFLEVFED
Experiment: In vitro TR-β activity (in-house protocol)
Type: cell-based
Settings: Conc. 1000 nM; read-out: TR-β Fold Induction w.r.t T3(100 nm)
Each entry below carries its reported fold induction at 1 µM.
Field format: numeric only.

{"entry-smiles": "CC(C)NS(=O)(=O)c1cc(Oc2c(Cl)cc(N(CC(=O)O)C(=O)Oc3ccc(O)cc3)cc2Cl)ccc1O", "fold induction at 1 µM": 88.9}
{"entry-smiles": "O=C(O)CN(CC(=O)O)c1cc(Cl)c(Oc2ccc(O)c(S(=O)(=O)N3CCCCC3)c2)c(Cl)c1", "fold induction at 1 µM": 46.8}
{"entry-smiles": "Cc1cc(N(CC(=O)O)CC(=O)O)cc(C)c1Oc1ccc(O)c(C(C)C)c1", "fold induction at 1 µM": 95.6}

Reported fold induction at 1 µM ( Cc1cccc(C(=O)c2cc(Oc3c(Cl)cc(N(CC(=O)O)C(=O)Oc4ccc(O)cc4)cc3Cl)ccc2O)c1 ) = 55.2
